TESTED_SYSTEM: human GPR120 (Homo sapiens)
Construct: host or cells: HEK293 cells coexpressing Gqi5
Sequence (Q5NUL3 whole entry): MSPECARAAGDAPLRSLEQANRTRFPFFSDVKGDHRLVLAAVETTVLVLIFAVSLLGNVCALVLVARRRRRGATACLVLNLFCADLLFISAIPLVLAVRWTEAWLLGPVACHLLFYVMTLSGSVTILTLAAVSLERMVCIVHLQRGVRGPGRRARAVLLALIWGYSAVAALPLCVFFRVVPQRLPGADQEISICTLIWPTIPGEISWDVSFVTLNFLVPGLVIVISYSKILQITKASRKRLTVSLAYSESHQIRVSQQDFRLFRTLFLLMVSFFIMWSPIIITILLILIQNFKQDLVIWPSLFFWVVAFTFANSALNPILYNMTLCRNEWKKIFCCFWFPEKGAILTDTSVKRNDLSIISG
EXPERIMENTAL_PROTOCOL: Intracellular Ca2+ (FLIPR Calcium 4, Flexstation) assay in human GPR120 stable HEK293 cell line coexpressing Gqi5
Assay type: cell-based
CONDITIONS_USED: 5 μM compound compared to the maximal activity of GW9508 at 6.7 μM (100%)
MEASURED_QUANTITY: % Activity at 5 μM (%)

* Cc1noc(-c2ccccc2)c1COc1c(F)cc(CCC(=O)O)cc1F [Example 15] | 72
* CCc1ccc(-n2nc(C)cc2COc2c(F)cc(C[C@H](C)C(=O)O)cc2F)cc1 [Example 99] | 73
* CCc1ccc(-n2nc(C)cc2COc2ccc(CCC(C)C(=O)O)cc2)cc1 (centres unmarked) [Example 132] | 85
* Cc1cc(COc2c(F)cc(CCCC(=O)O)cc2F)n(-c2ccc(Cl)cc2)n1 [Example 128] | 112
* COc1ccc(-c2noc(C)c2COc2c(F)cc(CCC(=O)O)cc2F)cc1 [Example 21] | 97
